Target: T1, Cynomolgus monkey glycophorin A on Cynomolgus monkey red blood cells or red blood cell membranes (Cynomolgus monkey)
T1 construct: whole, on cells; also called Cyno RBC; Cynomolgus monkey RBC membranes
Assay: Fab on intact cyno RBC, unbound Fab by ELISA; 20 min after 200-fold dilution
Metric: percentage of input antibody bound (%)
Numbers only, in %.

| Binder | percentage of input antibody bound (%) |
| --- | --- |
| TPP-7782, affinity matured 6C12 Fab (Fab, V domains shown, Tested as Fab) VH: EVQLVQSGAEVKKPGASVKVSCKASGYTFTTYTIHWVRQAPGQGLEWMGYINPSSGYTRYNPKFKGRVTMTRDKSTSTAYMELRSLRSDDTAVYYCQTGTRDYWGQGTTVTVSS VL: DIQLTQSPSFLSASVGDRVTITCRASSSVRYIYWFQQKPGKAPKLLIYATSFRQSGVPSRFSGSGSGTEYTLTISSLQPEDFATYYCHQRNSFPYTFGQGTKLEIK | 59 |

Batch of 5 binders: report percentage of input antibody bound for each.
1. TPP-7783, affinity matured 6C12 Fab (Fab, V domains shown, Tested as Fab) VH: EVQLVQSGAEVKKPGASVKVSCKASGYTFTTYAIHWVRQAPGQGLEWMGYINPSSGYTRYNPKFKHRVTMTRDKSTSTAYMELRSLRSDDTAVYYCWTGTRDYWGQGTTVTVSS VL: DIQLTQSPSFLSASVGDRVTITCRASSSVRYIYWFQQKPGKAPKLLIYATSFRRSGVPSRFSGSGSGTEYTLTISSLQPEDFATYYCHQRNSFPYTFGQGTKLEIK
2. TPP-7793, affinity matured 6C12 Fab (Fab, V domains shown, Tested as Fab) VH: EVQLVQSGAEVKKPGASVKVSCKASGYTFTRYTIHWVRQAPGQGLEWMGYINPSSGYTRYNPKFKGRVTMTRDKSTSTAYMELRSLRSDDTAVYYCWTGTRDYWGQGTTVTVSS VL: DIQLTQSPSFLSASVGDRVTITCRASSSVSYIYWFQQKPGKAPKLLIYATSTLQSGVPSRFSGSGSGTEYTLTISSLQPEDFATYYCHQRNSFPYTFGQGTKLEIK
3. TPP-7796, affinity matured 6C12 Fab (Fab, V domains shown, Tested as Fab) VH: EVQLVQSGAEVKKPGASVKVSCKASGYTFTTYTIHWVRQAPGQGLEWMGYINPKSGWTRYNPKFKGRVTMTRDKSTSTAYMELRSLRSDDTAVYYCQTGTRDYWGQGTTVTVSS VL: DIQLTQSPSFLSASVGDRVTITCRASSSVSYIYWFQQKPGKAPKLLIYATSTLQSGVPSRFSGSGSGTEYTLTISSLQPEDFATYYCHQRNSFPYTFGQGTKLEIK
4. TPP-7781, affinity matured 6C12 Fab (Fab, V domains shown, Tested as Fab) VH: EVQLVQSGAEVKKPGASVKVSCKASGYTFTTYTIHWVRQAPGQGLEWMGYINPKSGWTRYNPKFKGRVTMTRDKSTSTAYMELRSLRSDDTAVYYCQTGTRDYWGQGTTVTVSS VL: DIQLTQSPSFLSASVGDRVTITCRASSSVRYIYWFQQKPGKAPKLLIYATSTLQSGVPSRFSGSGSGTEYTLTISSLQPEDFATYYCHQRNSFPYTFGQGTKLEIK
5. TPP-7794, affinity matured 6C12 Fab (Fab, V domains shown, Tested as Fab) VH: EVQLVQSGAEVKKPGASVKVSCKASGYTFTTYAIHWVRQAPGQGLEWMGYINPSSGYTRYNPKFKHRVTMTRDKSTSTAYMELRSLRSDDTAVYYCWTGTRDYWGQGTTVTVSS VL: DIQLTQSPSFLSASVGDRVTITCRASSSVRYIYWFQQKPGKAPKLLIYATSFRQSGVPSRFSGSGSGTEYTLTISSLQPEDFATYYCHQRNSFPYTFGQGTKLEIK

1: 62; 2: 51; 3: 21; 4: 32; 5: 65

Provide each entry's percentage of input antibody bound from the list below.
1. TPP-7790, affinity matured 6C12 Fab (Fab, V domains shown, Tested as Fab with a 6xHIS tag) VH: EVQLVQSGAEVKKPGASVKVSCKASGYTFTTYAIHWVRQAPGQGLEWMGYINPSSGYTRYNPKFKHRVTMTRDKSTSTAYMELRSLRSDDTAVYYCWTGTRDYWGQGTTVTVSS VL: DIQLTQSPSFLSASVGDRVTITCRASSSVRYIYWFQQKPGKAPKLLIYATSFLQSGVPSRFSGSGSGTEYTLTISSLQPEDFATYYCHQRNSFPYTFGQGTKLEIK
2. TPP-7797, affinity matured 6C12 Fab (Fab, V domains shown, Tested as Fab) VH: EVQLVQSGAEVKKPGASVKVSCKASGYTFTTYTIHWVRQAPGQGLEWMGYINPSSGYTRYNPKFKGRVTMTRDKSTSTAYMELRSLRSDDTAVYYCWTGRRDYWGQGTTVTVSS VL: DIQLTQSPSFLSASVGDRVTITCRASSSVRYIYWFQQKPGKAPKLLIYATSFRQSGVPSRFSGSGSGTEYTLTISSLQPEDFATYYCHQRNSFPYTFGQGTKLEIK

1: 90; 2: 59
